In this section, each of the variants is paired with its reported polymerase ribozyme fitness (log ratio).
B1: TPR 5TU (parent)
chain: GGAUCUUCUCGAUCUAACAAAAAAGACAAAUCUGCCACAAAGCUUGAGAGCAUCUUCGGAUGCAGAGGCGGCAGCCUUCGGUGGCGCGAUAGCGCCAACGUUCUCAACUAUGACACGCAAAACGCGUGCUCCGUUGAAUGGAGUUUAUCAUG

Variants of: B1
method.description: polymerase ribozyme fitness, log enrichment relative to wild type (log ratio); higher = more active; in vitro selection for triplet polymerase activity
Variants at the floor of the assay were thinned out.

variant_code="C32U C43U G92A U146G" measured_property="polymerase ribozyme fitness (log ratio)" measured_result="≤ -4.2"
variant_code="G74C A97U C132A G141A G143C" measured_property="polymerase ribozyme fitness (log ratio)" measured_result="≤ -4.2"
variant_code="A16C G59C" measured_property="polymerase ribozyme fitness (log ratio)" measured_result=-0.987
variant_code="A52C C99G" measured_property="polymerase ribozyme fitness (log ratio)" measured_result=-4.11

polymerase ribozyme fitness (log ratio) reported for this variant A23U A24U : -4.12

polymerase ribozyme fitness (log ratio) reported for this variant C14G C87U C149A : ≤ -4.2

polymerase ribozyme fitness (log ratio) reported for this variant A29U G59C G88U C95G : ≤ -4.2

polymerase ribozyme fitness (log ratio) reported for this variant A19C A28C A73G C87U : ≤ -4.2

polymerase ribozyme fitness (log ratio) reported for this variant C85U C87G C95G C131A U134G A147U : ≤ -4.2

polymerase ribozyme fitness (log ratio) reported for this variant C27U A47G A52C G83A U146G : -3.62

polymerase ribozyme fitness (log ratio) reported for this variant G74A G100U U104C U109G U146A : ≤ -4.2
